Target: VEGFR-2 (human, UniProt P35968 20-1356)
Sequence (P35968 20-1356): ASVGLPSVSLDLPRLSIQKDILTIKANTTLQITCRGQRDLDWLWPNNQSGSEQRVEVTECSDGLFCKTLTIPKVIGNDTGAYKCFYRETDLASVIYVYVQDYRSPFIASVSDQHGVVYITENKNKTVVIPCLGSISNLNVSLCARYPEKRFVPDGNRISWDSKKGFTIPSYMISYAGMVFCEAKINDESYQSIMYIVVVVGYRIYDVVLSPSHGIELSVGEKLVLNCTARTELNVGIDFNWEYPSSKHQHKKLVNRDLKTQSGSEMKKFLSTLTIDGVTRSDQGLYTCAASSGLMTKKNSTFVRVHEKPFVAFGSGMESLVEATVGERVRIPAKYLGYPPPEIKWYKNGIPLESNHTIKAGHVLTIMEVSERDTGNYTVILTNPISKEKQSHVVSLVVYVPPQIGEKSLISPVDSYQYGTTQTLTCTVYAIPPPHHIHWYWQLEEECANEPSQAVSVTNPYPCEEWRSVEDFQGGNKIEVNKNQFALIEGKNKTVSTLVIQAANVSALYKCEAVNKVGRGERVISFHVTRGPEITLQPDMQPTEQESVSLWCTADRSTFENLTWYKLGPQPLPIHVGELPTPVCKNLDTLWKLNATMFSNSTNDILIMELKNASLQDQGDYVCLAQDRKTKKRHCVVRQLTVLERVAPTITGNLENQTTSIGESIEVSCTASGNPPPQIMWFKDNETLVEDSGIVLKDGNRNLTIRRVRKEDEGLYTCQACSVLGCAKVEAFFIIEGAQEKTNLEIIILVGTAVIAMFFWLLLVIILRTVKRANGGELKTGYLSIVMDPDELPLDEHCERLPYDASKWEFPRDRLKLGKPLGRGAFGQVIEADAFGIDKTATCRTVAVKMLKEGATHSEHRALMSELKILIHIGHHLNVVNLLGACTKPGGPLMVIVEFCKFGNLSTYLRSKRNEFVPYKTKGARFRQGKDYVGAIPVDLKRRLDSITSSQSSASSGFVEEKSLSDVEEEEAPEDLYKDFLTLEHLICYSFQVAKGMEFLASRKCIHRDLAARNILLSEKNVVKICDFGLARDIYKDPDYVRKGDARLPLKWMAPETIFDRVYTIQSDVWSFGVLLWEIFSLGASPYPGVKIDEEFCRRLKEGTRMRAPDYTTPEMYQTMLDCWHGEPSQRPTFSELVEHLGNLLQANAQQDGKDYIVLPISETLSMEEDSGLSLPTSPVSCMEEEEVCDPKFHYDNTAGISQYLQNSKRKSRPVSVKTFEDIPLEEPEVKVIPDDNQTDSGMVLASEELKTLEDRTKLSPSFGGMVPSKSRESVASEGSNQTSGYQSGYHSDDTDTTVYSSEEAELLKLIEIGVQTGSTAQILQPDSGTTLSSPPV
Experiment: cell-based or functional assay
Bridges are numbered along the chain shown (N, C = ends). [ ]: non-standard residue; d: D form. hTyr = N[C@@H](CCc1ccc(O)cc1)C(=O)O; Tle = CC(C)(C)[C@H](N)C(=O)O; F4aao = not defined here; Atb = not defined here
pERK Assay Results (AlphaLISA p-Erk1/2, HUVEC) values by entry

| binder | readout.value |
| --- | --- |
| {CH2CO}-WWVDVKDDLYFVDCG-NH2 (thioether N-14; also: homodimer: Lys6 joined to Lys6 of second copy by cPEG17c (Linker Structure No. 4)) [Peptide complex Dimer Structure No. 42] | ≥ 50 % activity at 20 nM |
| {CH2CO}-WW[hTyr]DVKDD[Atb]Y[F4G][hTyr]DCG-NH2 (thioether N-14; reading uncertain; also: dimer: Lys6 joined to Lys6 of second copy by OCOPEG13OCO (Linker Structure No. 5)) [Peptide complex Dimer Structure No. 57] | ≥ 50 % activity at 20 nM |
| {CH2CO}-WW[Tle]DVKDDLYF[hTyr][F4aao]CG-NH2 (thioether N-14; reading uncertain; also: homodimer: Lys6 joined to Lys6 of second copy by cPEG17c (Linker Structure No. 4)) [Peptide complex Dimer Structure No. 35] | ≥ 50 % activity at 10 nM |

Q: Suppose we examine the binder {CH2CO}-WW[Tle]DVKDDLYF[hTyr]DCG-NH2 (thioether N-14; also: homodimer: Lys6 joined to Lys6 of second copy by cPEG17c (Linker Structure No. 4)) [Peptide complex Dimer Structure No. 44] ; what pERK Assay Results (AlphaLISA p-Erk1/2, HUVEC) value has been reported?
Ans: ≥ 50 % activity at 20 nM

Q: Fill in the blank: the reported pERK Assay Results (AlphaLISA p-Erk1/2, HUVEC) of {CH2CO}-WW[Tle]DVKDD[Atb]YF[hTyr]DCG-NH2 (thioether N-14; reading uncertain; also: homodimer: Lys6 joined to Lys6 of second copy by cPEG17c (Linker Structure No. 4)) [Peptide complex Dimer Structure No. 48] is ____.
Ans: ≥ 50 % activity at 20 nM
